FACS MFI for assorted binders
Biological target: T1, human Claudin18.1 (CLDN18.1) (human, UniProt P56856 1-261)
T1 construct: whole, on cells; also called human Claudine18.1
T1 sequence (P56856 whole entry): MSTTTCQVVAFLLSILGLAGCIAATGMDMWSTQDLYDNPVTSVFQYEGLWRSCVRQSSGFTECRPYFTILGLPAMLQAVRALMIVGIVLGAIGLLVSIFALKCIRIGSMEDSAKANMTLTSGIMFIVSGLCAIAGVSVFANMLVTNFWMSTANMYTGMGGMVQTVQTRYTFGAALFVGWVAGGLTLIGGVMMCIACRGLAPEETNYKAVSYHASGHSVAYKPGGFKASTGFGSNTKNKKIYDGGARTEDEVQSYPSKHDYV
Experiment: FACS on CHOK1-18.1 cells;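 further: test antibody binding to the cells detected by flow cytometry using a fluorescent dye-labelled secondary antibody, read out as median fluorescence intensity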
test_readout: FACS MFI

INSERT INTO results (binder, obs_value) VALUES
  ('Ab09 (antibody, V domains shown, mouse monoclonal (hybridoma)) VH: EVQLQQSGPELVKPGTSVKMSCKASGYTFTDYNMHWVKLSHGKSLEWIGYINPNNGGTIYNQRFKGKATLTVNKSSRTAYMDLRSLTSEDSAVYYCARQGYYGNSMDYWGQGNSVTVSS VL: DIVMTQSPSSLTVTPGERVTMSCKSSQSLLNGGNQRNYLTWYQQKPGQPPKLLIYWASTRESGVPDRFAGSGSGTDFTLTISRVQAEDLSFYYCQNSYFYPFTFGSGTKLDLR', 95.6),
  ('Ab10 (antibody, V domains shown, mouse monoclonal (hybridoma)) VH: EVMLVESGGGLVKPGGSLKLSCAASGFTFSSYTMSWVRQTPEKRLEWVATISVIGGNTYYVDSVKGRFTISRDKAKNTLYLQMSSLRSEDTALYYCARLGQTQRNAMDYWGQGTSVTVSS VL: DIVMTQSPSSLSVSAGEKVTMSCKSSQSLLNSGNQKNYLAWYQQKPGQPPKLLIYGASTRESGVPDRFTGSGSGTDFTLTISSVQAEDLAVYYCQNDYSYPLTFGAGTKLELK', 80.8),
  ('Ab22 (antibody, V domains shown, mouse monoclonal (hybridoma)) VH: EVMLVESGGGLVKPGGSLKLSCAASGFTFSSYTMSWVRQTPEKRLEWVATIIGGYGNTYYADSVKGRFTISRDSAKNTLYLQMISLRSEDTALYYCTRLGQTQRNAMDYWGQGTSVTVSS VL: DILMTQSPSSLSVSAGEKVTMSCKSSQSLLNSGNQKNYLAWYQQKPGQPPKLLIYGASTRESGVPDTFTGSGSGTDFTLTISSVQAEDLAVYYCQNDYYYPFTFGAGTKLEL', 82.3);
